# credit: ChEMBL document CHEMBL4619792

- System: Human alphaherpesvirus 3
- TEST NAME: Antiviral activity against thymidine kinase positive Varicella zoster virus OKA infected in human HEL cells assessed as reduction in plaque formation measured after 5 days
- Type: functional, organism-based
- MEASUREMENT PARAMETERS: Human alphaherpesvirus 3, OKA, 120 h
pEC50: −log10 of the molar value.
# pEC50 per record follows

Take a look at these entries with their results.
COMPOUND	pEC50
CCCCCOC(=O)[C@@H](NP(=O)(CO[C@H](C)COc1nccc(N)n1)Oc1ccccc1)C(C)C (mixture of isomers)	< 4.00
CCCCCOC(=O)[C@@H](NP(=O)(CO[C@H](C)COc1ncc(F)c(N)n1)Oc1ccccc1)C(C)C (mixture of isomers)	< 4.00
CCCCCOC(=O)[C@@H](NP1(=O)CO[C@H](COc2ncc(F)c(N)n2)CO1)C(C)C (mixture of isomers)	< 4.00

Just so you know, measured pEC50 for CCCCCOC(=O)[C@@H](NP(=O)(CO[C@@H](C)COc1ncc(F)c(N)n1)Oc1ccccc1)C(C)C (mixture of isomers) came out at < 4.00

Just so you know, measured pEC50 for CCCCCOC(=O)[C@@H](NP(=O)(CO[C@@H](CF)COc1ncc(F)c(N)n1)Oc1ccccc1)C(C)C (mixture of isomers) came out at 5.17

Just so you know, measured pEC50 for CCCCCOC(=O)[C@@H](NP(=O)(CO[C@@H](C)COc1nccc(N)n1)Oc1ccccc1)C(C)C (mixture of isomers) came out at < 4.00

Just so you know, measured pEC50 for `Nc1ccnc(OC[C@H](CF)OCP(=O)(O)O)n1` came out at 5.42

###

- TEST NAME: Selectivity index, ratio of CC50 for human HEL cells to EC50 for antiviral activity against Cytomegalovirus AD169 infected in human HEL cells
- Format: toxicity, cell-based
- MEASUREMENT PARAMETERS: read-out: Ratio CC50/EC50
# selectivity ratio per record follows

COMPOUND	selectivity ratio
CCCCCOC(=O)[C@@H](NP(=O)(CO[C@@H](CF)COc1nccc(N)n1)Oc1ccccc1)C(C)C (mixture of isomers)	220 to 818

Consider now this further compound.
Just so you know, measured selectivity ratio for CCCCCOC(=O)C[C@H](NP(=O)(CO[C@@H](CF)COc1nccc(N)n1)Oc1ccccc1)C(=O)OCCCCC (mixture of isomers) came out at 96 to 551

###

- TEST NAME: Selectivity index, ratio of CC50 for human HEL cells to EC50 for antiviral activity against thymidine kinase deficient Varicella zoster virus 07-1 infected in human HEL cells
- Format: toxicity, cell-based
- MEASUREMENT PARAMETERS: read-out: Ratio CC50/EC50
# selectivity ratio per record follows

MOLECULE	selectivity ratio
CCCCCOC(=O)C[C@H](NP(=O)(CO[C@@H](CF)COc1nccc(N)n1)Oc1ccccc1)C(=O)OCCCCC (mixture of isomers)	96 to 551

Consider now this further molecule.
Just so you know, measured selectivity ratio for CCCCCOC(=O)[C@@H](NP(=O)(CO[C@@H](CF)COc1nccc(N)n1)Oc1ccccc1)C(C)C (mixture of isomers) came out at 220 to 818

###

# MCC at 72 h per record follows
- TEST NAME: Cytotoxicity against human HEL cells assessed as minimum cytotoxic concentration for change in cellular morphology incubated for 3 days by microscopic analysis
- Assay type: cell-based

Just so you know, measured MCC at 72 h for CCCCCOC(=O)[C@@H](NP(=O)(CO[C@H](C)COc1nccc(N)n1)Oc1ccccc1)C(C)C (mixture of isomers) came out at > 100 µM

Just so you know, measured MCC at 72 h for `Nc1nc2c(ncn2COC(CO)CO)c(=O)[nH]1` came out at > 394 µM

Just so you know, measured MCC at 72 h for CCCCCOC(=O)[C@@H](NP(=O)(CO[C@@H](C)COc1nccc(N)n1)Oc1ccccc1)C(C)C (mixture of isomers) came out at > 100 µM

###

- System: Cytomegalovirus
- TEST NAME: Antiviral activity against Cytomegalovirus AD169 infected in human HEL cells assessed as reduction in virus-induced cytopathogenicity measured after 6 to 7 days
- Type: functional, organism-based
- MEASUREMENT PARAMETERS: Human betaherpesvirus 5, AD169, HEL
# pEC50 per record follows
When answering, recall that pEC50 equals minus log10 of the concentration in mol/L, and write that number alone.

COMPOUND	NUMERIC RESULT
CCCCCOC(=O)[C@@H](NP(=O)(CO[C@@H](CF)COc1ncc(F)c(N)n1)Oc1ccccc1)C(C)C (mixture of isomers)	4.95

Consider now this further compound.
Just so you know, measured pEC50 for CCCCCOC(=O)C[C@H](NP(=O)(CO[C@@H](CF)COc1nccc(N)n1)Oc1ccccc1)C(=O)OCCCCC (mixture of isomers) came out at 6.27

###

- Test system: Human alphaherpesvirus 3
- TEST NAME: Antiviral activity against thymidine kinase positive Varicella zoster virus OKA infected in human HEL cells assessed as reduction in plaque formation measured after 5 days
- Assay type: functional, organism-based
- MEASUREMENT PARAMETERS: Human alphaherpesvirus 3, OKA, 120 h
# pEC50 per record follows
When answering, recall that pEC50 equals minus log10 of the concentration in mol/L, and write that number alone.

Take a look at these entries with their results.
MOLECULE	ASSAYED SYSTEM	pEC50
CCCCCOC(=O)C[C@H](NP(=O)(CO[C@H](CF)COc1nccc(N)n1)Oc1ccccc1)C(=O)OCCCCC (mixture of isomers)	Human alphaherpesvirus 3	4.42
CCCCCOC(=O)[C@@H](NP1(=O)CO[C@H](COc2nccc(N)n2)CO1)C(C)C (mixture of isomers)	Human alphaherpesvirus 3	4.27

Just so you know, measured pEC50 for `O=c1[nH]c(=O)n([C@H]2C[C@H](O)[C@@H](CO)O2)cc1/C=C/Br` came out at 7.05

###

- Tested on: Human alphaherpesvirus 3
- TEST NAME: Antiviral activity against thymidine kinase positive Varicella zoster virus OKA infected in human HEL cells assessed as reduction in plaque formation measured after 5 days
- Assay type: functional, organism-based
- MEASUREMENT PARAMETERS: Human alphaherpesvirus 3, OKA, 120 h
OBSERVATION TYPE: pEC50
When answering, recall that pEC50 equals minus log10 of the concentration in mol/L, and write that number alone.

Take a look at these entries with their results.
MOLECULE	pEC50
CCCCCOC(=O)[C@@H](NP(=O)(CO[C@@H](CF)COc1nccc(N)n1)Oc1ccccc1)C(C)C (mixture of isomers)	6.44
CCCCCOC(=O)C[C@H](NP(=O)(CO[C@@H](CF)COc1nccc(N)n1)Oc1ccccc1)C(=O)OCCCCC (mixture of isomers)	6.44

Consider now this further molecule.
Just so you know, measured pEC50 for CCCCCOC(=O)[C@@H](NP(=O)(CO[C@H](CF)COc1nccc(N)n1)Oc1ccccc1)C(C)C (mixture of isomers) came out at 4.41

###

- TEST NAME: Selectivity index, ratio of CC50 for human HEL cells to EC50 for antiviral activity against Cytomegalovirus Davis infected in human HEL cells
- Format: toxicity, cell-based
- MEASUREMENT PARAMETERS: read-out: Ratio CC50/EC50
# selectivity ratio per record follows

MOLECULE	selectivity ratio
CCCCCOC(=O)[C@@H](NP(=O)(CO[C@@H](CF)COc1nccc(N)n1)Oc1ccccc1)C(C)C (mixture of isomers)	220 to 818

Consider now this further molecule.
Just so you know, measured selectivity ratio for CCCCCOC(=O)C[C@H](NP(=O)(CO[C@@H](CF)COc1nccc(N)n1)Oc1ccccc1)C(=O)OCCCCC (mixture of isomers) came out at 96 to 551

###

# pEC50 per record follows
- Test system: Cytomegalovirus
- TEST NAME: Antiviral activity against Cytomegalovirus AD169 infected in human HEL cells assessed as reduction in virus-induced cytopathogenicity measured after 6 to 7 days
- Assay type: functional, organism-based
- MEASUREMENT PARAMETERS: Human betaherpesvirus 5, AD169, HEL
pEC50: −log10 of the molar value.

Take a look at these entries with their results.
COMPOUND	ASSAYED SYSTEM	RESULT
CCCCCOC(=O)[C@@H](NP(=O)(CO[C@H](C)COc1ncc(F)c(N)n1)Oc1ccccc1)C(C)C (mixture of isomers)	Cytomegalovirus	< 4.00
CCCCCOC(=O)[C@@H](NP(=O)(CO[C@@H](C)COc1nccc(N)n1)Oc1ccccc1)C(C)C (mixture of isomers)	Cytomegalovirus	< 4.00
Nc1nc2c(ncn2COC(CO)CO)c(=O)[nH]1	Cytomegalovirus	4.89
CCCCCOC(=O)[C@@H](NP(=O)(CO[C@H](CF)COc1ncc(F)c(N)n1)Oc1ccccc1)C(C)C (mixture of isomers)	Cytomegalovirus	< 4.00
CCCCCOC(=O)[C@@H](NP(=O)(CO[C@@H](C)COc1ncc(F)c(N)n1)Oc1ccccc1)C(C)C (mixture of isomers)	Cytomegalovirus	< 4.00
Nc1ccnc(OC[C@H](CF)OCP(=O)(O)O)n1	Cytomegalovirus	5.63
CCCCCOC(=O)[C@@H](NP(=O)(CO[C@@H](CF)COc1nccc(N)n1)Oc1ccccc1)C(C)C (mixture of isomers)	Cytomegalovirus	6.59
Nc1ccnc(OC[C@@H](CF)OCP(=O)(O)O)n1 (mixture of isomers)	Cytomegalovirus	< 4.00

Query CCCCCOC(=O)C[C@H](NP(=O)(CO[C@H](CF)COc1nccc(N)n1)Oc1ccccc1)C(=O)OCCCCC (mixture of isomers) on Cytomegalovirus; pEC50 returned: 4.20

Query CCCCCOC(=O)[C@@H](NP1(=O)CO[C@@H](COc2nccc(N)n2)CO1)C(C)C (mixture of isomers) on Cytomegalovirus; pEC50 returned: < 4.00

Query CCCCCOC(=O)[C@@H](NP1(=O)CO[C@@H](COc2ncc(F)c(N)n2)CO1)C(C)C (mixture of isomers) on Cytomegalovirus; pEC50 returned: < 4.00
